Sourced from ChEMBL document CHEMBL1128721

- target entity: D(2) dopamine receptor (Homo sapiens)
- assay summary: Binding affinity towards human Dopamine receptor D2L evaluated using [3H]spiperone
measured parameter: Ki

Oc1ccc(C2=CCC[C@@H](CN3CC=C(c4ccccc4)CC3)C2)cc1: 0.0035 µM
Oc1ccc(C2=CCN(C[C@@H]3CCC=C(c4ccc(O)cc4)C3)CC2)cc1: 0.0103 µM

Would you kindly look at the next entry?
Query block: // query Ki value for entry Oc1ccc(C2=CCN(C[C@@H]3CCC=C(c4ccccc4)C3)CC2)cc1
Result block: 0.094 µM

====

Reported ED50 by item:
- Tested on: Monkey
- assay summary: Inhibition of conditioned avoidance in squirrel monkeys was determined after peroral administration of compound
- Format: functional
- condition label: in Saimiri, po

Oc1ccc(C2=CCN(C[C@@H]3CCC=C(c4ccc(O)cc4)C3)CC2)cc1: > 2.5 mg/kg
Oc1ccc(C2=CCN(C[C@@H]3CCC=C(c4ccccc4)C3)CC2)cc1: > 2.5 mg/kg
Oc1ccc(C2=CCC[C@@H](CN3CC=C(c4ccccc4)CC3)C2)cc1: 1.34 mg/kg

We next turn to a different compound, shown below.
Query block: # value lookup — system Monkey, readout ED50, item C1=C(c2ccccc2)CCN(C[C@@H]2CCC=C(c3ccccc3)C2)C1 [CI-1007]
Result block: 0.63 mg/kg

====

- target entity: UniProt P14416
- assay summary: Binding affinity towards human Dopamine receptor D2L evaluated using [3H]N-0437
measured parameter: Ki (nM)
The answer is to be given in nM; state only the numeric part.

C1=C(c2ccccc2)CCN(C[C@@H]2CCC=C(c3ccccc3)C2)C1: 8.4
Oc1ccc(C2=CCN(C[C@@H]3CCC=C(c4ccc(O)cc4)C3)CC2)cc1: 2.2
Oc1ccc(C2=CCN(C[C@@H]3CCC=C(c4ccccc4)C3)CC2)cc1: 5.7

Query block: Reported Ki, molecule Oc1ccc(C2=CCC[C@@H](CN3CC=C(c4ccccc4)CC3)C2)cc1 : ____
Result block: 0.2

====

Entries and their Activity values follow.
- target entity: D(2) dopamine receptor (Homo sapiens, UniProt P14416)
- Sequence (P14416 whole entry): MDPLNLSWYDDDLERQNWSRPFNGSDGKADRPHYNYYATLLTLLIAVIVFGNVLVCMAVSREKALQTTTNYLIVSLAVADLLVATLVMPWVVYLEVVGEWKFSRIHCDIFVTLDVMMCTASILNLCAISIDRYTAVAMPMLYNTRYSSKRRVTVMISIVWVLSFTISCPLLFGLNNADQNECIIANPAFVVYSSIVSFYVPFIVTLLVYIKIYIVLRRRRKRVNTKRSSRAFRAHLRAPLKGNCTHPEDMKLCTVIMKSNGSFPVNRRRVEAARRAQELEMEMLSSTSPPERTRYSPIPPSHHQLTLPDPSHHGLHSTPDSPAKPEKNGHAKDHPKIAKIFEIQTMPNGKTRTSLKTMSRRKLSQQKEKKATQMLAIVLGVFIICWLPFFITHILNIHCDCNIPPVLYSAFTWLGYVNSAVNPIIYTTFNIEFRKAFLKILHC
- assay summary: Intrinsic activity relative to Quinpirole for human Dopamine receptor D2L was determined
Give a plain numeric answer without units written out.

Below, each entry is followed by its recorded Activity result.
Oc1ccc(C2=CCN(C[C@@H]3CCC=C(c4ccc(O)cc4)C3)CC2)cc1: 0.29
C1=C(c2ccccc2)CCN(C[C@@H]2CCC=C(c3ccccc3)C2)C1 [CI-1007]: 0.66
Oc1ccc(C2=CCC[C@@H](CN3CC=C(c4ccccc4)CC3)C2)cc1: 0.62

Now, please, on to the next compound.
Query block: Find the measured Activity: item Oc1ccc(C2=CCN(C[C@@H]3CCC=C(c4ccccc4)C3)CC2)cc1 , target or system D(2) dopamine receptor (Homo sapiens, UniProt P14416).
Result block: 0.37

====

- Test system: Rattus norvegicus
- assay summary: Effect on […] in rats after intraperitoneal administration of compound (10 mg/kg) and GBL, was determined and expressed as percent reversal of the increase in DOPA
- Format: functional
Recorded Activity, one value per entry.
Please reply with the value in numeric form only.

Below, 3 molecules whose answers are already recorded.
Oc1ccc(C2=CCN(C[C@@H]3CCC=C(c4ccc(O)cc4)C3)CC2)cc1: -10
C1=C(c2ccccc2)CCN(C[C@@H]2CCC=C(c3ccccc3)C2)C1 [CI-1007]: -99
Oc1ccc(C2=CCC[C@@H](CN3CC=C(c4ccccc4)CC3)C2)cc1: -100

// switching to the query molecule
Query block: GET /values?readout=Activity&system=Rattus norvegicus&item= Oc1ccc(C2=CCN(C[C@@H]3CCC=C(c4ccccc4)C3)CC2)cc1
Result block: 33

====

Below is a list of entries, each paired with its recorded Ki value.
- target entity: UniProt P21917
- Sequence (P21917 whole entry): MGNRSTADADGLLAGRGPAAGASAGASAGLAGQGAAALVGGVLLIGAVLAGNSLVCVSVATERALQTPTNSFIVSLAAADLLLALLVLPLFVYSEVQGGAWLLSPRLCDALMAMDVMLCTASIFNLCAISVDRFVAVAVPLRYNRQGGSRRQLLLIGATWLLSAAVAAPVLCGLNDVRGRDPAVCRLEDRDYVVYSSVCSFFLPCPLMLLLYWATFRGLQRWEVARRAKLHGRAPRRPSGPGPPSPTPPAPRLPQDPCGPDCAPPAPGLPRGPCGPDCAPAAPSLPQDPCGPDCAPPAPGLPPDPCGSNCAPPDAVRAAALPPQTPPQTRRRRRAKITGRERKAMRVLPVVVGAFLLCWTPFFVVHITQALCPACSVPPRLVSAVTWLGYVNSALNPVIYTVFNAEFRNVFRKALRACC
Your answer should be a plain number; it is taken to be in nM.

Oc1ccc(C2=CCN(C[C@@H]3CCC=C(c4ccc(O)cc4)C3)CC2)cc1: 68

Query block: // lookup Ki for Oc1ccc(C2=CCC[C@@H](CN3CC=C(c4ccccc4)CC3)C2)cc1
Result block: 61.4

====

Reported values: pKi for D(3) dopamine receptor (Homo sapiens), one per item.
Would you please state pKi, meaning minus log10 of the concentration in mol/L, as a bare number?

# count of solved cases: 2
Oc1ccc(C2=CCN(C[C@@H]3CCC=C(c4ccc(O)cc4)C3)CC2)cc1: 8.47
Oc1ccc(C2=CCC[C@@H](CN3CC=C(c4ccccc4)CC3)C2)cc1: 9.28

Next:
Query block: Fill in the blank: the reported pKi of Oc1ccc(C2=CCN(C[C@@H]3CCC=C(c4ccccc4)C3)CC2)cc1 is ____.
Result block: 7.25
